// data source = PubChem BioAssay (NCI)

- ASSAY_METHOD_TEXT: NCI Yeast Anticancer Drug Screen. Data for the mec2-1 strain (AID 157)
- APPLIED_CONDITIONS: S. cerevisiae mec2-1 strain, at 5.0 µM (retest, dose inferred, filed as 0.5)
The panel holds about 79,000 compounds, 15% with a hit somewhere; the sample as a whole holds those more often. The source made the active and inactive calls. Rule as the data show it: active = growth inhibition above about 70%; inactive = the rest.
# valid calls are 1.0 (active), 0.0 (inactive); nothing else

- MOLECULE: "Cn1c(=O)c2c(ncn2-c2ccncc2)n(C)c1=O"
  GROUP_LABEL: 0.0
- MOLECULE: "c1cc2cc(Cc3ccc4[nH]ccc4c3)ccc2[nH]1"
  GROUP_LABEL: 0.0

## Input Which outcome was entered for the molecule "COc1ccc(C(c2ccc(OC)cc2)c2ccccc2C(=O)O)cc1" in this test?
## Output 0.0

====

- ASSAY_METHOD_TEXT: NCI Yeast Anticancer Drug Screen. Data for the cln2 rad14 strain (AID 165);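 also: 0% = growth equal to vehicle treated cultures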
- APPLIED_CONDITIONS: S. cerevisiae cln2 rad14 strain, at 50.0 µM (retest, dose inferred, filed as 5.0)
This is part of a sample that, as a whole, favours compounds with a hit. Of some 79,000 tested, about 15% had one in any assay. Activity calls are given as the source filed them. Rule as the data show it: active = growth inhibition above about 70%; inactive = the rest.
A correct response names exactly one class from active, inactive

Worked cases, answers included:
- COMPOUND: "C=C(CN1CCOCC1)C(=O)c1ccccc1"
  GROUP_LABEL: "inactive"
- COMPOUND: "Cc1ccc(S(=O)(=O)N/N=C2/CC[C@H](C(C)(C)C)C[C@@H]2C)cc1"
  GROUP_LABEL: "active"

## Input // outcome(item) with item = "O=[N+]([O-])/C=C/c1ccco1"
## Output active

## Input Called result for "NC(=S)SCCC(=O)O"
## Output inactive

## Input Kindly provide the recorded test outcome for the following compound: "O=C1O/C(=C\c2ccccc2)c2ccccc21"
## Output inactive

## Input Just curious, what result did "O=C1C(=O)C2CC3(CC1N2Cc1ccccc1)OCCO3" get here?
## Output inactive

## Input Could you please tell me the result logged for "CC(=O)Nc1ccc(S(=O)(=O)N/N=C/c2cc(I)cc([N+](=O)[O-])c2O)cc1" in this assay?
## Output inactive

## Input Give the logged outcome of this assay for the following compound: COc1ccccc1C1C2=C(COC2=O)OC(C)(C)Oc2cc3c(cc21)OCO3 (configuration not stated)
## Output active

## Input Per the assay record, what outcome was assigned to Cc1cc(S(=O)(=O)Nc2nc(N)nc(N(C)C)n2)c(SC(C(=O)O)c2ccccc2)cc1Cl (configuration not stated) ?
## Output inactive

## Input Outcome? "NSc1ccccn1"
## Output active

## Input Hi, do you know how "O=C1CCCC/C1=C\c1ccc(Br)cc1" came out in this test?
## Output active

## Input Just curious, what result did "Cc1ccc(S(=O)(=O)c2cc(O)c(O)c3ccc(Br)cc23)cc1" get here?
## Output active

====

- ASSAY_METHOD_TEXT: NCI Yeast Anticancer Drug Screen. Data for the mlh1 rad18 strain (AID 175)
- APPLIED_CONDITIONS: S. cerevisiae mlh1 rad18 strain growth inhibition; at 50.0 µM (retest, dose inferred, filed as 5.0); stronger effect = higher value
The panel holds about 79,000 compounds, 15% with a hit somewhere; the sample as a whole holds those more often.
Returns t if the recorded growth inhibition is greater than or equal to 90%, and f otherwise.

Worked examples follow.
- COMPOUND: "COC(=O)C(CBr)CBr"
  GROUP_LABEL: "t"
- COMPOUND: "CSC(=Nc1ccc(Cl)cc1)N1CC=Cc2ccccc21"
  GROUP_LABEL: "f"
- COMPOUND: "O=C(c1ccc(Br)cc1)C1OC12C(=O)Nc1ccccc12 (configuration not stated)"
  GROUP_LABEL: "t"
- COMPOUND: "N#Cc1ccc([N+](=O)[O-])cc1C#N"
  GROUP_LABEL: "t"
- COMPOUND: "NC(=O)NNC(=O)NNC(N)=O"
  GROUP_LABEL: "f"

## Input Could you verify whether the entry "CCCC/C=C\CCCCCCCCCC1=C(O)C(=O)C=C(OC)C1=O" shows growth inhibition of no less than 90%?
## Output f

## Input Determine whether this compound has growth inhibition no lower than 90%: "CCOc1ccc2c(ccc(/C=C\c3cc(C)c4cccnc4c3O)[n+]2C)c1"
## Output t

## Input I'd appreciate it if you could say whether O=C(O)C1CCc2ccc3ccccc3c2C1c1cccc2ccccc12 (configuration not stated) has growth inhibition at least equal to 90%.
## Output t

## Input Identify whether the reported growth inhibition of the following compound is 90% or greater: COc1ccc(C(=O)C(c2ccc(OC)cc2)C2(O)C(=O)Nc3c(Cl)cc(Cl)cc32)cc1 (configuration not stated)
## Output f

## Input Confirm if growth inhibition reported for the compound "O=C1NC(=Nc2ccccc2)C(=Nc2ccccc2)N1c1ccccc1" is 90% or above.
## Output t

## Input Answer whether growth inhibition of CC1(C)CC(=O)C2=C(C1)OC1=C(CC(C)(C)CC1=O)C2c1ccccc1[N+](=O)[O-] (configuration not stated) is greater than or equal to 90%.
## Output f
